- TARGET_OF_ASSAY: JAK3 (Homo sapiens, UniProt P52333)
- Sequence (P52333 whole entry): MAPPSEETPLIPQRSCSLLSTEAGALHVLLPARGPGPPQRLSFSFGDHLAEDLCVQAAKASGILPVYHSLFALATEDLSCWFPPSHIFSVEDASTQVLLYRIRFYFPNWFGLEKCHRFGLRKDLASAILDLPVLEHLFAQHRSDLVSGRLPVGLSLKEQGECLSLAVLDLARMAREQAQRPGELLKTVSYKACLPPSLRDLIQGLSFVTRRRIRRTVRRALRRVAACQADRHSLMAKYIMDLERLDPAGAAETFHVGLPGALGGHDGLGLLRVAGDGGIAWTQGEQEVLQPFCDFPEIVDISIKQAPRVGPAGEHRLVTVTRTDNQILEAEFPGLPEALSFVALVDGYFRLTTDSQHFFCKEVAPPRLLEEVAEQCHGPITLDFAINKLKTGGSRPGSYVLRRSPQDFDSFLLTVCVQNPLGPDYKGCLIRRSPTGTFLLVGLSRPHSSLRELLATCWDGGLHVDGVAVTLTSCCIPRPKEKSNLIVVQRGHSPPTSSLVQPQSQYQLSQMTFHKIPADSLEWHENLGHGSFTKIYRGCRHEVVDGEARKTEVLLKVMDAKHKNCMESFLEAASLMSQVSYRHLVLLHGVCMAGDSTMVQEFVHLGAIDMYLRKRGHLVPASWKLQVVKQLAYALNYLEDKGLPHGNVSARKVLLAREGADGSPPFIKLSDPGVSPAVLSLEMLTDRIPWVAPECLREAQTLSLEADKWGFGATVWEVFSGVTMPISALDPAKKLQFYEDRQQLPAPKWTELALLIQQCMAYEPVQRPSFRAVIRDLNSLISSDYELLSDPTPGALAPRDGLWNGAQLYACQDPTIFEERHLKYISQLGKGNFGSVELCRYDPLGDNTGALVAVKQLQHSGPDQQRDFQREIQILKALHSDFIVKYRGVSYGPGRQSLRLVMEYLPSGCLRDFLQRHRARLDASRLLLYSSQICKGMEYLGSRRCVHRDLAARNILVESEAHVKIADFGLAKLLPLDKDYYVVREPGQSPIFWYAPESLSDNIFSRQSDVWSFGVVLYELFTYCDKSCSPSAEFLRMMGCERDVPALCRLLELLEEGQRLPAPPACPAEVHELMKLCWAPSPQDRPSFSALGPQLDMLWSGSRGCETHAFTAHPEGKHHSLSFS
- ASSAY_REMARKS: JAK3 Tyrosine Kinase Assay
- Type: biochemical
- CONDITION_INFO: ATP 8 μM; JAK3 2.5 nM; 60 min room temperature
- Procedure: JAK3 Tyrosine Kinase Assay The assays were performed in V-bottom 384-well plates. […] The reaction was initiated by the combination of JAK3 with substrates and test compounds. […] The reaction mixture was analyzed on the Caliper LabChip 3000 by electrophoretic separation of the fluorescent substrate and phosphorylated product. […] Compounds were dissolved at 10 mM in dimethylsulfoxide (DMSO) and evaluated at eleven concentrations, each in duplicate. […]
Quick reference: pIC50 of the listed items.
In plain terms, pIC50 is the concentration in mol/L turned into minus its base-10 logarithm.

CCC(CO)(CO)C(=O)N1CCN(c2nc(Nc3cc(C)[nH]n3)c3cccn3n2)CC1; 5.63
Cc1cc(Nc2nc(N3CCN(C(=O)Cc4cccc(C(F)(F)F)c4)CC3)nn3cccc23)n[nH]1; 7.70
Cc1cc(Nc2nc(N3CCN(C(=O)C(C)(C)NC(=O)OC(C)(C)C)CC3)nn3cccc23)n[nH]1; 4.86
Cc1cc(Nc2nc(N3CCN(C(=O)c4ccccc4S(C)(=O)=O)CC3)nn3cccc23)n[nH]1; 5.52
Cc1cc(Nc2nc(N3CCN(C(=O)c4cccc(C#N)c4)CC3)nn3cccc23)n[nH]1; 8.00

Measured pIC50, "Cc1cc(Nc2nc(N3CCN(C(=O)C(C)(C)N(C)C(=O)OC(C)(C)C)CC3)nn3cccc23)n[nH]1" : 5.76

Measured pIC50, "Cc1cc(Nc2nc(N3CCN(C(=O)c4ncccn4)CC3)nn3cccc23)n[nH]1" : 7.05

Measured pIC50, "Cc1cc(Nc2nc(N3CCN(C(=O)Cc4ccc(F)cc4F)CC3)nn3cccc23)n[nH]1" : 6.80
